Consider the following compounds; for each one, report its Activity.
Test system: Tobacco mosaic virus
Assay: In vivo antiviral activity against Tobacco mosaic virus (TMV) inoculated right side of Nicotiana tabacum L. leaves assessed as protection effect at 100 ug/mL preincubated 12 hr before viral challenge measured after 3 to 4 days
Format: functional
Numbers only, in %.

A selection of reference data follows.
>>> df
                           structure_string  measurement_label  result
0  COc1cc2c3c(c4cc(OC)c(OC)cc4c2cc1OC)CN1CCC[C@@H]1C3           Activity    22.5
1  COc1ccc2c3c(c4cc(OC)c(OC)cc4c2c1)CN1CCC[C@@H]1C3           Activity    31.7

Consider the record given below.
get_value(item= COc1cc2c3c(c4cc(OC)c(OC)cc4c2cc1OC)C(=O)n1cccc1C3 , readout=Activity) returns 5.3

---

System: Tobacco mosaic virus
Assay: In vivo antiviral activity against Tobacco mosaic virus (TMV) inoculated left side of Nicotiana tabacum L. leaves assessed as inactivation effect at 500 ug/mL co-incubated with virus measured after 3 to 4 days
Format: functional
Consider the following compounds; for each one, report its Activity.
Reply with the number and its unit after it.

A selection of reference data follows.
>>> df
                                   compound  measurement_label  result
0  COc1ccc2c3c(c4cc(OC)c(OC)cc4c2c1)CN1CCC[C@H]1[C@H]3O           Activity   32.4%
1  COc1ccc2c3c(c4cc(OC)c(OC)cc4c2c1)[C@@H](O)[C@H]1CCCN1C3           Activity   38.5%

Please state, for each entry, its recorded Activity.
1. COc1cc2c3c(c4cc(OC)c(OC)cc4c2cc1OC)[C@@H](O)[C@H]1CCCN1C3
2. COc1ccc2c3c(c4cc(OC)c(OC)cc4c2c1)CN1CCC[C@@H]1C3
3. COc1cc2c3c(c4cc(OC)c(OC)cc4c2cc1OC)C(=O)N1CCC[C@H]1C3
4. COc1cc2c3c(c4cc(OC)c(OC)cc4c2cc1OC)C(=O)n1cccc1C3
5. COc1cc2c3c(c4cc(OC)c(OC)cc4c2cc1OC)NC(=O)[C@H]1CCCN1C3
6. COc1cc2c3c(c4cc(OC)c(OC)cc4c2cc1OC)NC[C@@H]1CCCN1C3
7. COc1cc2c3c(c4cc(OC)c(OC)cc4c2cc1OC)NC[C@H]1CCCN1C3

Result:
1. 49.2%
2. 48.9%
3. 37%
4. 22.6%
5. 34.9%
6. 42.5%
7. 31.5%

Please state, for each entry, its recorded Activity.
1. COc1ccc2c3c(c4cc(OC)c(OC)cc4c2c1)C[C@H]1CCCN1C3 [(-)-ANTOFINE]
2. COc1cc2c3c(c4cc(OC)c(OC)cc4c2cc1OC)[C@H](O)[C@@H]1CCCN1C3
3. CNCC(=O)N[C@@H](CO)C(=O)N[C@H]1[C@H](O)[C@@H](O)[C@H](n2ccc(N)nc2=O)O[C@@H]1C(N)=O
4. COc1ccc2c3c(c4cc(OC)c(OC)cc4c2c1)CN1CCC[C@@H]1[C@@H]3O

Result:
1: 42.7%; 2: 57.8%; 3: 68.5%; 4: 51.2%

---

Test system: Tobacco mosaic virus
Assay: In vivo antiviral activity against Tobacco mosaic virus (TMV) inoculated left side of Nicotiana tabacum L. leaves assessed as inactivation effect at 100 ug/mL co-incubated with virus measured after 3 to 4 days
Type: functional
measurement_label: Activity (%)
Numbers only, in %.

A selection of reference data follows.
In [3]: df
Out[3]:
                                   compound  result
0  COc1ccc2c3c(c4cc(OC)c(OC)cc4c2c1)[C@@H](O)[C@H]1CCCN1C3    14.2
1  COc1cc2c3c(c4cc(OC)c(OC)cc4c2cc1OC)C(=O)n1cccc1C3     8.5
2  COc1ccc2c3c(c4cc(OC)c(OC)cc4c2c1)C[C@H]1CCCN1C3 [(-)-ANTOFINE]    15.3

Consider the record given below.
get_value(item= COc1ccc2c3c(c4cc(OC)c(OC)cc4c2c1)C[C@@H]1CCCN1C3 , readout=Activity) returns 37.2

Attribution: ChEMBL document CHEMBL3045942
